SYSTEM_NAME: M3 muscarinic acetylcholine receptor (Homo sapiens, UniProt P20309)
Sequence (P20309 whole entry): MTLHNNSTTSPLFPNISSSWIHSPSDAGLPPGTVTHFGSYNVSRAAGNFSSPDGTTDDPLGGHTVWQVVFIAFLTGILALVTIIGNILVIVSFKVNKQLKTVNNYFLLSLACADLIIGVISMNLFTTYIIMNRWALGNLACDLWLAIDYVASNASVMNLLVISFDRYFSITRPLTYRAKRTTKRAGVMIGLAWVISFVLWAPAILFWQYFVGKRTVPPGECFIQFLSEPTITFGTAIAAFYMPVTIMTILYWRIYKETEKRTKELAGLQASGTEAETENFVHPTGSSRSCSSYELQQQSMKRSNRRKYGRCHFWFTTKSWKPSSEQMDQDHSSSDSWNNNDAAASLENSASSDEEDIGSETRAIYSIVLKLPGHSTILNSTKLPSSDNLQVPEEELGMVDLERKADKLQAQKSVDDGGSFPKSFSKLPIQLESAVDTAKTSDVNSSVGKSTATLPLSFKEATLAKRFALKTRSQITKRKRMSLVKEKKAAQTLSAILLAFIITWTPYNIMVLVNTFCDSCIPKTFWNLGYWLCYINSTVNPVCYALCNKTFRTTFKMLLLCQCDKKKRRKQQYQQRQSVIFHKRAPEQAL
ASSAY_METHOD_TEXT: 3H-NMS radioligand pseudocompetition binding (allosteric model)
QUANTITY_NAME: pKd
Scale explanation: pKd corresponds to minus log10 of a concentration expressed in moles per litre.

INPUT: Find the recorded pKd belonging to SLURP-2 (protein) IWCHQCTGFGGCSHGSRCLRDSTHCVTTATRVLSNTEDLPLVTKMCHIGCPDIPSLGLGPYVSIACCQTSLCNHD and report it.
OUTPUT: 6.84
